- Test system: NCI-H460 lung
Possible outcomes: active, inactive

- molecule: "COc1ccc(C(=O)NNc2nc(Cl)nc(N3CCN(C(c4ccccc4)c4ccccc4)CC3)n2)cc1"
  assay system: "NCI-H460 lung"
  cat: "inactive"
- molecule: "O=C(NCCc1ccccn1)OCc1nc2nc(Cl)nc(N3CCOCC3)c2[nH]1"
  assay system: "NCI-H460 lung"
  cat: "inactive"
- molecule: "Cc1cc(O)c(C2=NN(c3ccc(S(N)(=O)=O)cc3)C(c3ccc(Cl)cc3)C2)c(C)c1Cl (configuration not stated)"
  assay system: "NCI-H460 lung"
  cat: "inactive"
- molecule: "O=C([O][Sn]([O]C(=O)c1ccccn1)([c]1ccccc1)[c]1ccccc1)c1ccccn1"
  assay system: "NCI-H460 lung"
  cat: "inactive"
- molecule: "Cc1c(-c2ccnc(N)n2)c2c(n1Cc1ccccc1)C(=O)c1ccccc1C2=O"
  assay system: "NCI-H460 lung"
  cat: "inactive"
- molecule: "Cc1c2cc(Cl)c3ccccc3c2c[n+]2ccccc12"
  assay system: "NCI-H460 lung"
  cat: "inactive"
- molecule: "c1ccc(-c2nc(N3CCOCC3)c3c4c(sc3n2)CCCCCC4)nc1"
  assay system: "NCI-H460 lung"
  cat: "inactive"
- molecule: "O=C(c1ccccc1)c1c(NCC(O)CN2CCOCC2)n(Cc2ccccc2)c(=O)n(Cc2ccccc2)c1=O (configuration not stated)"
  assay system: "NCI-H460 lung"
  cat: "inactive"
- molecule: "C=C1CCC2(C#N)[C@H]3[C@H](CC[C@@H]2C)[C@@H](C)C[C@@H](CC(C)(C)NC(=O)CN2CCC2=O)[C@H]13 (some centres not stated)"
  assay system: "NCI-H460 lung"
  cat: "inactive"
- molecule: "CN(C)c1nc2ccccc2c2c1c1c(n2Cc2ccccc2)-c2ccccc2C1=O"
  assay system: "NCI-H460 lung"
  cat: "inactive"
- molecule: "Cc1nc(Nc2ccccn2)sc1C(=O)/C=C/c1ccc(Cl)cc1"
  assay system: "NCI-H460 lung"
  cat: "active"
- molecule: "Cn1cc(-c2ccc3nnc(Sc4ccc5ncccc5c4)n3n2)cn1"
  assay system: "NCI-H460 lung"
  cat: "inactive"
- molecule: "S=c1nc(N/N=C/c2ccco2)c2cn[nH]c2[nH]1"
  assay system: "NCI-H460 lung"
  cat: "inactive"
- molecule: "COC(=O)COc1ccc(/C=C2/N=C(c3ccccc3)N(c3c(C)n(C)n(-c4ccccc4)c3=O)C2=O)cc1"
  assay system: "NCI-H460 lung"
  cat: "inactive"
- molecule: "CC(=O)[O-].[Mn+3].[O-]c1ccccc1C=NCCNCCN=Cc1ccccc1[O-]"
  assay system: "NCI-H460 lung"
  cat: "inactive"
- molecule: "CCN(c1cc(-c2ccc(CN3CCOCC3)cc2)cc(C(=O)NCc2c(C)cc(C)[nH]c2=O)c1C)C1CCOCC1"
  assay system: "NCI-H460 lung"
  cat: "inactive"
- molecule: "O=c1/c(=C\\c2ccc(F)cc2)sc2n1C(c1ccc(F)cc1)C1=C(N=2)c2ccc3ccccc3c2OCC1 (configuration not stated)"
  assay system: "NCI-H460 lung"
  cat: "inactive"

* * *

- System: A549 NSCLC
- test protocol: NCI tumour cell line growth inhibition, 48 h

- compound: "C1CC[N-]CC1.CC(=N\\O)/C(C)=N/O.CC(=N\\O)/C(C)=N/O.OC1[CH-]CCCC1.[Co+2]"
  GI50: "58.5 µM"
- compound: "COc1cc(NC(=O)CCSc2nc3ccc(C)cc3c(=O)n2Cc2ccccc2)cc(OC)c1OC"
  GI50: "8.08 µM"
- compound: "O=c1[nH]c2nc(NC3CCOCC3)ncc2cc1Oc1ccc(F)cc1F"
  GI50: "> 25 µM"
- compound: "CC(C)(C)OC(=O)NCCCn1c2c(c3ccccc3c1=O)C(=O)c1ccccc1-2"
  GI50: "41.9 µM"
- compound: "O=P1(S)OC[C@H]2O[C@@H]3[C@H](F)[C@@H]2OP(O)(=S)OC[C@H]2O[C@H]([C@H](F)[C@@H]2O1)n1cnc2c(ncnc21)NC/C=C/CNc1ncnc2c1ncn23 (stereo partly drawn)"
  GI50: "> 100 µM"
- compound: "COc1cnc2c(c1)C(=O)c1c-2n(CCCNCCO)c(=O)c2ccncc12"
  GI50: "1.99 µM"
- compound: "CSCCCNC(=O)c1ccc2c(c1)/C(=C/c1[nH]c(C)cc1C)C(=O)N2"
  GI50: "2.75 µM"
- compound: "COc1ncnc(S(=O)(=O)c2ccc(N=C3C(=O)N(CN4CCN(c5cc6c(cc5F)c(=O)c(C(=O)O)cn6C5CC5)CC4)c4ccc(Cl)cc43)cc2)c1OC"
  GI50: "> 50 µM"

Where these numbers come from: PubChem BioAssay (NCI)
